Assay: Toxicity in brine shrimp assessed as mortality of larvae at 100 uM
Assay type: organism-based
Settings: artemia, in vivo; read-out: Activity
endpoint.label: mortality at 100 µM (%)

>  <molecule.smiles>
C=C1[C@@H](C)[C@H]2[C@H](Cc3ccc(O)cc3)NC(=O)[C@]23OC(=O)/C=C/[C@H](O)CCC[C@@H](C)C/C=C/[C@H]3[C@@H]1O

>  <measurement.units>
%

>  <result>
21

$$$$

Values were extracted from ChEMBL document CHEMBL1147258.
